Value source: PubChem BioAssay (NCI)

- Test system: 786-0 renal
- Procedure Text: NCI tumour cell line growth inhibition, 48 h
Quick reference: TGI of the listed items.

# Compound, TGI
data = [
    ("NC(=O)c1c2c(cc3c(=O)c4ccccc4[nH]c13)CCCC2", "> 100 µM"),
    ("O=C(/C=C/c1ccccc1O)/C=C/c1ccccc1O", "3.22 µM"),
    ("O=C(c1ccccc1)N1C(=S)N(c2ccc([N+](=O)[O-])cc2)C(=Nc2ccccc2)C1=Nc1ccccc1", "> 100 µM"),
    ("CO/N=C(/COc1c(-c2ccccc2)oc2ccccc2c1=O)c1ccc(F)cc1", "64 µM"),
    ("CCN1CCC(CC(=O)Nc2n[nH]c3nc(-c4cccs4)c(Br)cc23)CC1", "> 25 µM"),
    ("COc1ccc(/C=N/n2c(Cc3ccc(Cl)cc3)n[nH]c2=O)c(OC)c1", "52.8 µM"),
    ("Nc1c(S(=O)(=O)O)cc(Nc2cccc(S(=O)(=O)/C=C/S(=O)(=O)O)c2)c2c1C(=O)c1ccccc1C2=O", "> 100 µM"),
    ("Cn1c(=O)oc2cc(C3CCC(=O)N3Cc3ccc(Cl)cc3)ccc21 (stereo not given)", "> 100 µM"),
    ("O=CN1CCN(C=S)CC1", "> 100 µM"),
    ("CN(C)CCOC1(CC2CCCCC2)CCC(C(C)(C)C)CC1 (stereo not given)", "5.91 µM"),
]
